assay: Solubility assessment and polymorph screen on amorphous RAD1901-2HCl; assay type: physicochemical; conditions: after maturation at 50° C./RT
Marks after values point to notes of the source that are not given here.
Measurement Type: XRPD post 50° C./RT (form)

Reference set (8 entries):
CCNCCc1ccc(CN(CC)c2cc(OC)ccc2[C@@H]2CCc3cc(O)ccc3C2)cc1.Cl.Cl [Form B2.] : Form 2/3
CCNCCc1ccc(CN(CC)c2cc(OC)ccc2[C@@H]2CCc3cc(O)ccc3C2)cc1.Cl.Cl [Form B10.] : Form 1
CCNCCc1ccc(CN(CC)c2cc(OC)ccc2[C@@H]2CCc3cc(O)ccc3C2)cc1.Cl.Cl [Form B7.] : Form 1^+
CCNCCc1ccc(CN(CC)c2cc(OC)ccc2[C@@H]2CCc3cc(O)ccc3C2)cc1.Cl.Cl [Form B3.] : Form 2/3
CCNCCc1ccc(CN(CC)c2cc(OC)ccc2[C@@H]2CCc3cc(O)ccc3C2)cc1.Cl.Cl [Form B15.] : Form 3
CCNCCc1ccc(CN(CC)c2cc(OC)ccc2[C@@H]2CCc3cc(O)ccc3C2)cc1.Cl.Cl [Form B8.] : Form 1
CCNCCc1ccc(CN(CC)c2cc(OC)ccc2[C@@H]2CCc3cc(O)ccc3C2)cc1.Cl.Cl [Form B14.] : Poor
CCNCCc1ccc(CN(CC)c2cc(OC)ccc2[C@@H]2CCc3cc(O)ccc3C2)cc1.Cl.Cl [Form B6.] : Form 1^+

Prompt: Look up XRPD post 50° C./RT (form) for this molecule: CCNCCc1ccc(CN(CC)c2cc(OC)ccc2[C@@H]2CCc3cc(O)ccc3C2)cc1.Cl.Cl [Form B23.]
Response: Form 3

Prompt: Same again, this time with CCNCCc1ccc(CN(CC)c2cc(OC)ccc2[C@@H]2CCc3cc(O)ccc3C2)cc1.Cl.Cl [Form B24.]
Response: Form 3

Prompt: Same again, this time with CCNCCc1ccc(CN(CC)c2cc(OC)ccc2[C@@H]2CCc3cc(O)ccc3C2)cc1.Cl.Cl [Form B20.]
Response: Form 1

* * *

assay: Solubility assessment of amorphous RAD1901-2HCl in water/organic solvent mixtures; format: physicochemical; conditions: after stirring at 25° C. for 72 hours
Marks after values point to notes of the source that are not given here.
Measurement Type: XRPD (form) after stirring

CCNCCc1ccc(CN(CC)c2cc(OC)ccc2[C@@H]2CCc3cc(O)ccc3C2)cc1.Cl.Cl [Form C2.] : Form 1
CCNCCc1ccc(CN(CC)c2cc(OC)ccc2[C@@H]2CCc3cc(O)ccc3C2)cc1.Cl.Cl [Form C4.] : Form 1

* * *

test: Solubility assessment and polymorph screen on amorphous RAD1901-2HCl; format: physicochemical; conditions: after maturation at 50° C./RT
Marks after values point to notes of the source that are not given here.
Measurement Type: XRPD post 50° C./RT (form)

CCNCCc1ccc(CN(CC)c2cc(OC)ccc2[C@@H]2CCc3cc(O)ccc3C2)cc1.Cl.Cl [Form B12.] : Form 3
CCNCCc1ccc(CN(CC)c2cc(OC)ccc2[C@@H]2CCc3cc(O)ccc3C2)cc1.Cl.Cl [Form B5.] : Form 3
CCNCCc1ccc(CN(CC)c2cc(OC)ccc2[C@@H]2CCc3cc(O)ccc3C2)cc1.Cl.Cl [Form B13.] : Poor
